PROTOCOL: Kinetic solubility in pH 7.4 aqueous buffer at 500 uM by spectrophotometry
Assay type: physicochemical
EXPERIMENTAL_CONDITIONS: read-out: Kinetic_solubility

- CHEMICAL_SMILES: "COc1cc2c(-c3cnc(-c4ccc[nH]4)o3)c[nH]c2cc1Br"
  UNITS_TEXT: "µM"
  solubility kinetic at 500 µM: 156

---

PROTOCOL: Stability in human liver microsomes supplemented with UDP-glucuronic acid assessed as parent compound remaining level at 5 uM incubated for 1 hr by LC-MS analysis
Format: ADME, Microsome
EXPERIMENTAL_CONDITIONS: read-out: Stability

- CHEMICAL_SMILES: "COc1cc2c(-c3cnc(-c4ccc[nH]4)o3)c[nH]c2cc1Br"
  remaining at 1 h, 5 µM (%): 92
